Test system: CYP3A4 mRNA
experimental.details: Assay D: CYP induction screening assay in primary human hepatocytes
Assay type: in vitro ADME
assay.conditions: 48 h
quantity.measured: n-fold induction of CYP3A4 at 10 μM (n-fold)
Enter your answer as a number in n-fold; do not include the unit.

Observe how each entry below is paired with its result.
molecule	uom	n-fold induction of CYP3A4 at 10 μM
Cn1cc(-c2ccc(-c3ccc(F)nc3)c(N3CCC(c4nncn4C)CC3)c2C#N)cn1 [Compound 35, reference compound]	n-fold	3.0
Cn1c(N)nnc1C1CCN(c2c(C#N)cccc2-c2ccc(F)nc2)CC1 [Compound 14, reference compound]	n-fold	1.9
Cn1cnnc1C1(F)CCN(c2c(C#N)cc(-c3cccnc3)cc2-c2ccc(F)nc2)CC1	n-fold	1.8
Cc1nn(C)cc1-c1cc(C#N)c(N2CCC(F)(c3nncn3C)CC2)c(-c2ccc(F)nc2)c1	n-fold	2.0
Cn1cc(-c2cc(C#N)c(N3CCC(F)(c4nncn4C)CC3)c(-c3ccc(F)nc3)c2)cn1	n-fold	7.7
Cc1nn(C)c(C)c1-c1cc(C#N)c(N2CCC(F)(c3nncn3C)CC2)c(-c2ccc(F)nc2)c1	n-fold	1.7

Please turn your attention to the following entry.
stdin: Recorded n-fold induction of CYP3A4 at 10 μM of `Cc1ncc(-c2cc(C#N)c(N3CCC(F)(c4nncn4C)CC3)c(-c3ccc(F)nc3)c2)o1` , please.
stdout: 1.6

----------
Tested on: SIRPα signalling induced by Raji cells
experimental.details: Assay B: SIRPα signalling assay using Raji cells
Format: cell-based
assay.conditions: Homo sapiens, read-out: Inhibition of SIRPα signalling induced by Raji cells: IC50
# IC50 listing for each entry below
Enter your answer as a number in nM; do not include the unit.

Observe how each entry below is paired with its result.
compound	IC50 (nM)
Cc1ncc(-c2cc(C#N)c(N3CCC(F)(c4nncn4C)CC3)c(-c3ccc(F)nc3)c2)o1	180
Cn1cnnc1C1CCN(c2c(-c3ccc(F)nc3)ccc(-c3ccnc(N)c3)c2C#N)CC1 [Compound 44, reference compound]	121
Cn1cnnc1C1(F)CCN(c2c(C#N)cc(-c3ccnnc3)cc2-c2ccc(F)nc2)CC1	267
Cn1cnnc1C1(F)CCN(c2c(C#N)cc(C(C)(C)O)cc2-c2ccc(F)nc2)CC1	26

Please turn your attention to the following entry.
stdin: Recorded IC50 of Cn1cncc1C1CCN(c2c(C#N)cccc2-c2ccc(F)nc2)CC1 [QP5038, reference compound] , please.
stdout: 21

----------
tgt: UniProtKB Q9NXS2
Sequence (Q9NXS2 whole entry): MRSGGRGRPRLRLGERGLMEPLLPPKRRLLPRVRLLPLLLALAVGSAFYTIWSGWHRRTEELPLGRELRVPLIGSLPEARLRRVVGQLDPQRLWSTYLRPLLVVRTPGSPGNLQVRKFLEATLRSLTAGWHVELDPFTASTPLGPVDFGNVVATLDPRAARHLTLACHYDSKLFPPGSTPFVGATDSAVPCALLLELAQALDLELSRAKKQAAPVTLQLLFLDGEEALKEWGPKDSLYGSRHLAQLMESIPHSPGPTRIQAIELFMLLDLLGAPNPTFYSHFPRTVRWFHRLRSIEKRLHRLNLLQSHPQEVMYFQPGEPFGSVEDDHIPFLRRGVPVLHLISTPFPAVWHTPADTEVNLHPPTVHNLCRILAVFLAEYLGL
experimental.details: Assay A: biochemical QPCTL activity assay (MALDI-TOF MS)
assay.conditions: read-out: Inhibition of QPCTL: IC50
# IC50 listing for each entry below
Enter your answer as a number in nM; do not include the unit.

compound	tgt	uom	recorded.value
Cn1cnnc1C1(F)CCN(c2c(C#N)cc(-c3cnc(C(F)(F)F)nc3)cc2-c2ccc(F)nc2)CC1	UniProtKB Q9NXS2	nM	3

stdin: Recorded IC50 of `Cn1cnnc1C1(F)CCN(c2c(C#N)cc(C(C)(C)O)cc2-c2ccc(F)nc2)CC1` , please.
stdout: 1

stdin: Recorded IC50 of Cn1c(N)nnc1C1CCN(c2c(C#N)cccc2-c2ccc(F)nc2)CC1 [Compound 14, reference compound] , please.
stdout: 1

stdin: Recorded IC50 of Cn1cc(-c2ccc(-c3ccc(F)nc3)c(N3CCC(c4nncn4C)CC3)c2C#N)cn1 [Compound 35, reference compound] , please.
stdout: 2

stdin: Recorded IC50 of Cn1cnnc1C1CCN(c2c(-c3ccc(F)nc3)ccc(-c3ccnc(N)c3)c2C#N)CC1 [Compound 44, reference compound] , please.
stdout: 1

stdin: Recorded IC50 of `Cc1ncc(-c2cc(C#N)c(N3CCC(F)(c4nncn4C)CC3)c(-c3ccc(F)nc3)c2)cn1` , please.
stdout: 3

stdin: Recorded IC50 of `Cn1cnnc1C1(F)CCN(c2c(C#N)cc(-c3cccnc3)cc2-c2ccc(F)nc2)CC1` , please.
stdout: 3

stdin: Recorded IC50 of `Cn1cnnc1C1(F)CCN(c2c(C#N)cc(-c3ccnnc3)cc2-c2ccc(F)nc2)CC1` , please.
stdout: 2

stdin: Recorded IC50 of `Cc1nn(C)c(C)c1-c1cc(C#N)c(N2CCC(F)(c3nncn3C)CC2)c(-c2ccc(F)nc2)c1` , please.
stdout: 4

stdin: Recorded IC50 of `Cc1ncc(-c2cc(C#N)c(N3CCC(F)(c4nncn4C)CC3)c(-c3ccc(F)nc3)c2)o1` , please.
stdout: 2

stdin: Recorded IC50 of `Cn1cc(-c2cc(C#N)c(N3CCC(F)(c4nncn4C)CC3)c(-c3ccc(F)nc3)c2)cn1` , please.
stdout: 2

stdin: Recorded IC50 of `Cc1nn(C)cc1-c1cc(C#N)c(N2CCC(F)(c3nncn3C)CC2)c(-c2ccc(F)nc2)c1` , please.
stdout: 2
